System Under Test: GPR6 receptor expressed in CHO-K1 cells (Homo sapiens, UniProt P46095)
Sequence (P46095 whole entry): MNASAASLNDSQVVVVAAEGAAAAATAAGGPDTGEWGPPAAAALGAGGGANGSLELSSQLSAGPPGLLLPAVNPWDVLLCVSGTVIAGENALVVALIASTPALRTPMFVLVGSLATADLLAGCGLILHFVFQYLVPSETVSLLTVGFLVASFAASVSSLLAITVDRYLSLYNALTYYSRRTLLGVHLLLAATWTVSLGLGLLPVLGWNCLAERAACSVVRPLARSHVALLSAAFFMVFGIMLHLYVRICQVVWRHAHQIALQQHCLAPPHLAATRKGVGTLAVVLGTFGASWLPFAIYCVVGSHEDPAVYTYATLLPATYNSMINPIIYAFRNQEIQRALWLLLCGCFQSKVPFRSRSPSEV
Method: Inhibition of cAMP Activity of GPR6 In Vitro Assay
Experimental Setup: inhibition of constitutive cAMP activity of GPR6 in CHO-K1 cells, 45 min incubation, HTRF cAMP detection
pEC50: −log10 of the molar value.
Metric Name: pEC50

Recorded pEC50, per entry:
[
  {
    "Compound": "Cc1cc2nc(N3CCC(Oc4ccc(F)cc4F)CC3)c(NC3CC3)nc2cn1 [Example 34]",
    "System Under Test": "GPR6 receptor expressed in CHO-K1 cells (Homo sapiens, UniProt P46095)",
    "Recorded Measurement": 7.02
  },
  {
    "Compound": "Cc1cc2nc(N[C@H]3CCOC3)c(N3CCN(Cc4ccc(F)cc4F)CC3)nc2cn1 [Example 3]",
    "System Under Test": "GPR6 receptor expressed in CHO-K1 cells (Homo sapiens, UniProt P46095)",
    "Recorded Measurement": 7.05
  },
  {
    "Compound": "Cc1cc2nc(N[C@H]3C[C@@H](O)C3)c(N3CCC(Oc4ccc(F)cc4F)CC3)nc2cn1 [Example 9]",
    "System Under Test": "GPR6 receptor expressed in CHO-K1 cells (Homo sapiens, UniProt P46095)",
    "Recorded Measurement": 7.28
  },
  {
    "Compound": "Cc1cc2nc(N[C@H]3C[C@H](F)C3)c(N3CCN(Cc4ccc(F)cc4F)CC3)nc2cn1 [Example 12]",
    "System Under Test": "GPR6 receptor expressed in CHO-K1 cells (Homo sapiens, UniProt P46095)",
    "Recorded Measurement": 7.31
  },
  {
    "Compound": "COc1ccc(OC2CCN(c3nc4cnc(C)cc4nc3NC3CC3)CC2)c(F)c1 [Example 8, 2,2,2-trifluoroacetate]",
    "System Under Test": "GPR6 receptor expressed in CHO-K1 cells (Homo sapiens, UniProt P46095)",
    "Recorded Measurement": 7.73
  },
  {
    "Compound": "Cc1cc2nc(N3CCC(Oc4ccc(F)cc4F)CC3)c(N[C@H]3CCOC3)nc2cn1 [Example 37]",
    "System Under Test": "GPR6 receptor expressed in CHO-K1 cells (Homo sapiens, UniProt P46095)",
    "Recorded Measurement": 6.89
  }
]

A: Cc1cc2nc(NC3COC3)c(N3CCN(Cc4ccc(F)cc4F)CC3)nc2cn1 [Example 15]
B: Cc1cc2nc(NC(C)C)c(N3CCC(Oc4ccc(OC(F)F)cc4F)CC3)nc2cn1 [Example 18]
Q: When A and B are compared, which has the higher number for pEC50? Provide the label of your selected option as the answer.
Result: A
(A: 7.66, B: 7.40)

---

System Under Test: GPR6 receptor expressed in CHO-K1 cells (Homo sapiens, UniProt P46095)
Method: Inhibition of cAMP Activity of GPR6 In Vitro Assay
Experimental Setup: inhibition of constitutive cAMP activity of GPR6 in CHO-K1 cells, 45 min incubation, HTRF cAMP detection
Metric Name: EC50 (nM)

Recorded EC50, per entry:
[
  {
    "Compound": "Cc1cc2nc(N[C@@H]3CCOC3)c(N3CCC(Oc4ccc(OC(F)F)cc4F)CC3)nc2cn1",
    "EC50, nM": 81.4
  },
  {
    "Compound": "Cc1cc2nc(N3CCN(Cc4ccc(F)cc4F)CC3)c(NC3COC3)nc2cn1",
    "EC50, nM": 164
  },
  {
    "Compound": "Cc1cc2nc(N[C@H]3C[C@H](O)C3)c(N3CCC(Oc4ccc(F)cc4F)CC3)nc2cn1",
    "EC50, nM": 48.2
  },
  {
    "Compound": "Cc1cc2nc(NC(C)C)c(N3CCC(Oc4ccc(F)cc4F)CC3)nc2cn1",
    "EC50, nM": 16.5
  },
  {
    "Compound": "COc1ccc(CN2CCN(c3nc4cnc(C)cc4nc3N[C@@H]3CCOC3)CC2)c(F)c1",
    "EC50, nM": 311
  },
  {
    "Compound": "Cc1cc2nc(N3CCN(Cc4ccc(F)cc4F)CC3)c(NC(C)C)nc2cn1 [Example 30, 2,2,2-trifluoroacetate]",
    "EC50, nM": 80.1
  }
]

A: Cc1cc2nc(N[C@@H]3CCOC3)c(N3CCC(Oc4ccc(F)cc4F)CC3)nc2cn1
B: Cc1cc2nc(NC3CC3)c(N3CCN(Cc4ccc(OC(F)F)cc4F)CC3)nc2cn1
C: Cc1cc2nc(NC(C)C)c(N3CCN(Cc4ccc(F)cc4F)CC3)nc2cn1
D: COc1ccc(CN2CCN(c3nc4cnc(C)cc4nc3N[C@H]3CCOC3)CC2)c(F)c1
Q: Hey, quick one: sort these by EC50, largest value first please. Would you mind listing the labels in the order asked for?
Result: B, D, C, A

A: COc1ccc(CN2CCN(c3nc4cnc(C)cc4nc3NC(C)C)CC2)c(F)c1
B: Cc1cc2nc(N3CCN(Cc4ccc(F)cc4F)CC3)c(N[C@H]3CCOC3)nc2cn1
Q: When A and B are compared, which has the higher number for EC50? Provide the label of your selected option as the answer.
Result: B
(B: 326 nM, A: 37.3 nM)

P: Cc1cc2nc(N3CCC(Oc4ccc(OC(F)F)cc4F)CC3)c(NC(C)C)nc2cn1
Q: Cc1cc2nc(NC(C)C)c(N3CCN(Cc4ccc(OC(F)F)cc4F)CC3)nc2cn1
R: Cc1cc2nc(N3CCN(Cc4ccc(F)cc4F)CC3)c(NC3CC3)nc2cn1 [Example 31, 2,2,2-trifluoroacetate]
Q: // smallest EC50 at index 0, largest at the end Would you mind listing the labels in the order asked for?
Result: R, P, Q

---

System Under Test: GPR6 receptor expressed in CHO-K1 cells (Homo sapiens)
Method: Inhibition of cAMP Activity of GPR6 In Vitro Assay
Experimental Setup: inhibition of constitutive cAMP activity of GPR6 in CHO-K1 cells, 45 min incubation, HTRF cAMP detection
pEC50: −log10 of the molar value.
Metric Name: pEC50

1: Cc1cc2nc(N[C@H]3CCOC3)c(N3CCC(Oc4ccc(OC(F)F)cc4F)CC3)nc2cn1
2: Cc1cc2nc(N3CCC(Oc4ccc(F)cc4F)CC3)c(NC(C)C)nc2cn1
3: COc1ccc(CN2CCN(c3nc4cc(C)ncc4nc3NC(C)C)CC2)c(F)c1
Q: From the items above, give an ordering by pEC50 that starts at the lowest reported number. Would you mind listing the labels in the order asked for?
Result: 3, 1, 2

A: Cc1cc2nc(N[C@H]3C[C@H](F)C3)c(N3CCC(Oc4ccc(F)cc4F)CC3)nc2cn1
B: Cc1cc2nc(N3CCN(Cc4ccc(F)cc4F)CC3)c(N[C@@H]3CCOC3)nc2cn1
Q: Hi, I'm comparing two records. Which one has the lower pEC50, A or B ? Provide the label of your selected option as the answer.
Result: B

P: COc1ccc(CN2CCN(c3nc4cnc(C)cc4nc3NC3CC3)CC2)c(F)c1
Q: Cc1cc2nc(N[C@H]3C[C@H](O)C3)c(N3CCN(Cc4ccc(F)cc4F)CC3)nc2cn1
Q: When P and Q are compared, which has the higher number for pEC50? Provide the label of your selected option as the answer.
Result: Q

---

System Under Test: GPR6 receptor expressed in CHO-K1 cells (Homo sapiens, UniProt P46095)
Construct: expressed in transfected cells
Method: Inhibition of cAMP Activity of GPR6 In Vitro Assay
Assay type: cell-based
Experimental Setup: inhibition of constitutive cAMP activity of GPR6 in CHO-K1 cells, 45 min incubation, HTRF cAMP detection
Metric Name: EC50 (nM)

Recorded EC50, per entry:
[
  {
    "Smiles Representation": "Cc1cc2nc(N[C@H]3C[C@@H](O)C3)c(N3CCN(Cc4ccc(F)cc4F)CC3)nc2cn1",
    "System Under Test": "GPR6 receptor expressed in CHO-K1 cells (Homo sapiens, UniProt P46095)",
    "Readout Unit": "nM",
    "EC50": 69.3
  },
  {
    "Smiles Representation": "Cc1cc2nc(NC3CC3)c(N3CCC(Oc4ccc(OC(F)F)cc4F)CC3)nc2cn1",
    "System Under Test": "GPR6 receptor expressed in CHO-K1 cells (Homo sapiens, UniProt P46095)",
    "Readout Unit": "nM",
    "EC50": 62.6
  }
]

A: Cc1cc2nc(N[C@H]3CCOC3)c(N3CCC(Oc4ccc(F)cc4F)CC3)nc2cn1
B: Cc1cc2nc(N3CCC(Oc4ccc(F)cc4F)CC3)c(N[C@@H]3CCOC3)nc2cn1
Q: Hi, I'm comparing two records. Which one has the lower EC50, A or B ? Provide the label of your selected option as the answer.
Result: A
